The measurements presented in this section are drawn from ChEMBL document CHEMBL1127805.

experimental system: Glutamate NMDA receptor
test method notes: In vitro inhibition of [3H]glycine at NMDA receptor
Type: protein-complex assay
property measured: IC50

[
  {
    "line notation": "CN(C(=O)c1ccccc1)c1c(C(=O)O)[nH]c2cc(Cl)ccc12",
    "result": "110 nM"
  },
  {
    "line notation": "O=C(O)Cn1c(=O)c(=O)[nH]c2cc(Cl)c(Cl)cc21",
    "result": "110 nM"
  },
  {
    "line notation": "O=c1[nH][nH]c(=O)c2c(O)c3c(Cl)cc(Cl)cc3nc12",
    "result": "100 nM"
  }
]
